Please respond with reported KIDNEY_L for every item in the list.
- Organism: Rattus norvegicus
- Assay overview: Open TG-GATES - Regimen: Daily Repeat
- Format: toxicity, organism-based, Sprague-Dawley
- Parameters: regimen Daily Repeat, gender Male, age 6 weeks
- Details: in vivo, po, 0 mg/kg, […], tissue Kidney, route gavage, dose level Control, time 28 day
# value in g; strip the unit string

Which KIDNEY_L value belongs to CC(=N)S [THIOACETAMIDE] ?
1.4

Moving on to the next compound: Oc1ncnc2[nH]ncc12
1.4

Can you check C[C@](N)(Cc1ccc(O)c(O)c1)C(=O)O next?
1.3

Now consider CCSCC[C@H](N)C(=O)O .
1.5

Also CN1C(=O)OC(C)(C)C1=O , if possible.
1.5

Please do the same for CC(=O)Oc1cc(C(C)C)c(OCCN(C)C)cc1C as well.
1.5

Try this compound next: CC(C)C(=O)Nc1ccc([N+](=O)[O-])c(C(F)(F)F)c1 [FLUTAMIDE]
1.3

---

- Species on record: Rattus norvegicus
- Assay overview: Open TG-GATES - Regimen: Daily Repeat
- Assay type: toxicity, organism-based, Sprague-Dawley
- Set-up: regimen Daily Repeat, gender Male, age 6 weeks
- Details: in vivo, po, 100 mg/kg, […], tissue Blood, route gavage, dose level Low, time 7 day
Measurement kind: PT (s)
Response body: numeric value in s, unit text excluded.

Consider the compound CCN1CCCC1CNC(=O)c1cc(S(N)(=O)=O)ccc1OC (centres undefined) [SULPIRIDE] and give its measured PT.
13.1

Another compound to look at: CC(C)(S)[C@@H](N)C(=O)O [PENICILLAMINE]
14.2

Here is the next compound: O=C(O)c1cccnc1 [NIACIN]
16

Also, O=C(N[C@H](CO)[C@H](O)c1ccc([N+](=O)[O-])cc1)C(Cl)Cl [CHLORAMPHENICOL] please.
14.4

---

- Species on record: Rattus norvegicus
- Assay overview: Open TG-GATES - Regimen: Daily Repeat
- Assay type: toxicity, organism-based, Sprague-Dawley
- Set-up: regimen Daily Repeat, gender Male, age 6 weeks
- Details: in vivo, po, 100 mg/kg, […], tissue Plasma, route gavage, dose level Low, time 28 day
Assign LDH to each entry below.
Kindly provide the numeric value in IU/L only, without the unit symbol.

Which measured LDH value corresponds to CC(C)(S)[C@@H](N)C(=O)O ?
58

Now give it for O=C(O)c1cccnc1 too.
129.4

Now consider CCN1CCCC1CNC(=O)c1cc(S(N)(=O)=O)ccc1OC (centres undefined) [SULPIRIDE] .
173.6

And what about the compound O=C(N[C@H](CO)[C@H](O)c1ccc([N+](=O)[O-])cc1)C(Cl)Cl ?
44.6

---

- Species: Rattus norvegicus
- Assay overview: Open TG-GATES - Regimen: Daily Repeat
- Type: toxicity, organism-based, Sprague-Dawley
- Design: regimen Daily Repeat, gender Male, age 6 weeks
- Details: in vivo, po, 0 mg/kg, […], tissue Plasma, route gavage, dose level Control, time 7 day
Measurement kind: K (meq/L)
Quick note: give the figure in meq/L, leave out the unit.

Find the recorded K belonging to CCc1oc2ccccc2c1C(=O)c1cc(I)c(O)c(I)c1 and report it.
4.9

Quick one: Oc1ncnc2[nH]ncc12
4.6

What about O=C(N[C@H](CO)[C@H](O)c1ccc([N+](=O)[O-])cc1)C(Cl)Cl ?
3.9

Same question, CCC(C)(C)C(=O)O[C@H]1C[C@@H](C)C=C2C=C[C@H](C)[C@H](CC[C@@H]3C[C@@H](O)CC(=O)O3)[C@H]21 this time
4.7

---

- Species on record: Rattus norvegicus
- Assay overview: Open TG-GATES - Regimen: Daily Repeat
- Type: toxicity, organism-based, Sprague-Dawley
- Set-up: regimen Daily Repeat, gender Male, age 6 weeks
- Details: in vivo, po, 0 mg/kg, […], tissue Plasma, route gavage, dose level Control, time 14 day
Measurement kind: TP (g/dL)
Please respond with the number in g/dL and leave the unit unwritten.

Query: TP; subject: O=C(O)c1cccnc1
5.9

Entry CC(=N)S [THIOACETAMIDE] please
6.1

Repeat for the following compound: C[C@]12CCC(=O)C=C1CC[C@@H]1[C@@H]2CC[C@@]2(C)[C@H]1CC[C@]2(C)O
5.9

Repeat with CC(C)(S)[C@@H](N)C(=O)O
6.1

Try this compound next: CN1C(=O)OC(C)(C)C1=O
6

Let us now turn to C#C[C@]1(O)CC[C@H]2[C@@H]3CCc4cc(O)ccc4[C@H]3CC[C@@]21C
6

---

Give measured gamma-GTP for each item. Keep answers brief.
- Organism: Rattus norvegicus
- Assay overview: Open TG-GATES - Regimen: Single
- Assay type: toxicity, organism-based, Sprague-Dawley
- Parameters: regimen Single, gender Male, age 6 weeks
- Details: in vivo, po, 0 mg/kg, 6 h, tissue Plasma, route gavage, dose level Control
Kindly provide the numeric value in IU/L only, without the unit symbol.

Reported gamma-GTP for CN1C(=O)OC(C)(C)C1=O [TRIMETHADIONE] : what is it?
1.4

// same read-out, input: Nc1nc(N)c2nc(-c3ccccc3)c(N)nc2n1
1.2

Check CC(C)(S)[C@@H](N)C(=O)O [PENICILLAMINE] too.
1

Subsequent entry: C[C@](N)(Cc1ccc(O)c(O)c1)C(=O)O [METHYLDOPA]
1.2

Try the compound CC(=O)Oc1cc(C(C)C)c(OCCN(C)C)cc1C [MOXISYLYTE]
1.2

Now this one: CCN1CCCC1CNC(=O)c1cc(S(N)(=O)=O)ccc1OC (stereo not given) [SULPIRIDE]
1.8

Item: CC(C)C(=O)Nc1ccc([N+](=O)[O-])c(C(F)(F)F)c1 [FLUTAMIDE]
1

Try this compound too: C#C[C@]1(O)CC[C@H]2[C@@H]3CCc4cc(O)ccc4[C@H]3CC[C@@]21C [ETHINYL ESTRADIOL]
1

Also, C[C@]12CCC(=O)C=C1CC[C@@H]1[C@@H]2CC[C@@]2(C)[C@H]1CC[C@]2(C)O [METHYLTESTOSTERONE] please.
1.4

And the next one, Oc1ncnc2[nH]ncc12 [ALLOPURINOL] ?
0.8

---

- Species on record: Rattus norvegicus
- Assay overview: Open TG-GATES - Regimen: Daily Repeat
- Type: toxicity, organism-based, Sprague-Dawley
- Design: regimen Daily Repeat, gender Male, age 6 weeks
- Details: in vivo, po, 0 mg/kg, […], tissue Plasma, route gavage, dose level Control, time 7 day
Provide the reported PL of each item.
Respond with the bare value in mg/dL.

Value lookup for PL; key = C[C@]12CCC(=O)C=C1CC[C@@H]1[C@@H]2CC[C@@]2(C)[C@H]1CC[C@]2(C)O
136.4

For C[C@](N)(Cc1ccc(O)c(O)c1)C(=O)O then?
140.8

Do the same for CC(=N)S [THIOACETAMIDE] please
154.6

Query CCC(C)(C)C(=O)O[C@H]1C[C@@H](C)C=C2C=C[C@H](C)[C@H](CC[C@@H]3C[C@@H](O)CC(=O)O3)[C@H]21 next
152.4

What about CC(=O)Oc1cc(C(C)C)c(OCCN(C)C)cc1C ?
155.2

Then what about the compound CCSCC[C@H](N)C(=O)O ?
153

Now the same for O=C(O)c1cccnc1
160.4

Do the same for CN1C(=O)OC(C)(C)C1=O please
165.4

Now try CC(C)(S)[C@@H](N)C(=O)O .
159

Note, next up: O=C(N[C@H](CO)[C@H](O)c1ccc([N+](=O)[O-])cc1)C(Cl)Cl
162.2

Please do the same for CCc1oc2ccccc2c1C(=O)c1cc(I)c(O)c(I)c1 as well.
141.8

What about this compound? Nc1nc(N)c2nc(-c3ccccc3)c(N)nc2n1
179.4

How about this compound: CCN1CCCC1CNC(=O)c1cc(S(N)(=O)=O)ccc1OC (stereo not given) [SULPIRIDE]
152.8

Now this one: Oc1ncnc2[nH]ncc12
135.4

Continue with CC(C)C(=O)Nc1ccc([N+](=O)[O-])c(C(F)(F)F)c1 [FLUTAMIDE]
140.4

---

Exercise: state measured LDH for each of the compounds provided.
- Species on record: Rattus norvegicus
- Assay overview: Open TG-GATES - Regimen: Daily Repeat
- Type: toxicity, organism-based, Sprague-Dawley
- Set-up: regimen Daily Repeat, gender Male, age 6 weeks
- Details: in vivo, po, 0 mg/kg, […], tissue Plasma, route gavage, dose level Control, time 28 day
Please state the figure in IU/L; there is no need to write the unit.

For the compound C#C[C@]1(O)CC[C@H]2[C@@H]3CCc4cc(O)ccc4[C@H]3CC[C@@]21C , what LDH is on record?
59.2

Can you handle Nc1nc(N)c2nc(-c3ccccc3)c(N)nc2n1 next?
76.4

Same lookup for O=C(O)c1cccnc1 , please.
150.6

CC(C)(S)[C@@H](N)C(=O)O , same question.
51.6

Further, for CC(=O)Oc1cc(C(C)C)c(OCCN(C)C)cc1C ?
261

Another compound to look at: CCC(C)(C)C(=O)O[C@H]1C[C@@H](C)C=C2C=C[C@H](C)[C@H](CC[C@@H]3C[C@@H](O)CC(=O)O3)[C@H]21
76.6

What do you get for CN1C(=O)OC(C)(C)C1=O ?
64.2

Could you do the same for CC(=N)S [THIOACETAMIDE] , please?
96.4

What do you have for C[C@](N)(Cc1ccc(O)c(O)c1)C(=O)O ?
46.2

// next record C[C@]12CCC(=O)C=C1CC[C@@H]1[C@@H]2CC[C@@]2(C)[C@H]1CC[C@]2(C)O
59.8
